Sourced from the supplement of paper PMC10065799

Study System: SHP2-C SH2
Protocol Details: SH2 binding enrichment of the phosphorylated peptide, bacterial display (enrichment ratio); higher = better substrate or ligand; peptides without Tyr show the background
Quantity Name: SH2 binding enrichment

a. RRIHSYRRHLW [VHL_Y112_G114R]
b. LRSELYFLIAR [PHIP_Y16]
c. PEVRRHVLPLN [RPE65_Y368_Y368H]
d. TRSCKYLLLSM [NF1_Y491_Y489C]
Qu. Rank by SH2 binding enrichment (largest to smallest). Write the labels, ordered according to the request.
Ans. d, b, a, c
(d: 1.58, b: 1.03, a: 0.678, c: 0.391)

* * *

Study System: SHP2-C SH2
Protocol Details: SH2 binding enrichment of the phosphorylated peptide, bacterial display (enrichment ratio); higher = better substrate or ligand; peptides without Tyr show the background
Quantity Name: SH2 binding enrichment

INSERT INTO measurements (sequence_entry, quantity_name, reported_value) VALUES
  ('RFMVGYEMLAQ [GALT_Y339_K334R]', 'SH2 binding enrichment', 0.617);

P. CVAARYMDMKG [WFIKKN2_Y93_V96M]
Q. RRIHRYRGHLW [VHL_Y112_S111R]
Qu. Endpoint returns the identifier whose SH2 binding enrichment is numerically larger, either P or Q . Field: selected label. Fill in the label of the entry you choose.
Ans. P
(P: 0.765, Q: 0.531)

I. VEDDMYRKTCT [XPA_Y257_L252V]
II. MTRDIYRASFF [ALK_Y1278_A1274T_YF]
Qu. Lower value of SH2 binding enrichment belongs to which: I or II ? Field: selected label. Fill in the label of the entry you choose.
Ans. II

* * *

System: c-Src
Protocol Details: phosphorylation enrichment, bacterial display (enrichment ratio); higher = better substrate or ligand; peptides without Tyr show the background
Quantity Name: phosphorylation enrichment
// no unit, no text: just the number

Previously resolved entries follow.
INSERT INTO results (sequence_entry, study_system, reported_value) VALUES
  ('MICSAYALGGL [CPS1_Y590_R587C]', 'c-Src', 0.779),
  ('CLAKMYYSAVE [CP_Y539_D544E]', 'c-Src', 0.725),
  ('KRYRIYHLATS [BRCA2_Y3009]', 'c-Src', 0.508),
  ('SLFNGYVFSGM [NEIL3_Y71_V76M_YF]', 'c-Src', 0.482),
  ('QFNPEYVQQAS [LRRC7_Y1058_H1054Y_YF]', 'c-Src', 0.518);

Qu. What value of phosphorylation enrichment on c-Src does DAVAVCHGKIS [SH2D1A_Y7_Y7C] have?
Ans. 0.406

Qu. What value of phosphorylation enrichment on c-Src does QKLPLYILENN [VPS13B_Y2774_S2773L] have?
Ans. 0.964

Qu. What value of phosphorylation enrichment on c-Src does NPQKSYFICLF [WAS_Y83_R86C_YF] have?
Ans. 0.504

Qu. What value of phosphorylation enrichment on c-Src does KTVQDYLKKFY [MMP8_Y36_E38K] have?
Ans. 0.421

Qu. What value of phosphorylation enrichment on c-Src does KVQVSYKGDTK [HSPA1A_Y107_E110D] have?
Ans. 0.473

* * *

Study System: c-Src SH2
Protocol Details: SH2 binding enrichment of the phosphorylated peptide, bacterial display (enrichment ratio); higher = better substrate or ligand; peptides without Tyr show the background
Quantity Name: SH2 binding enrichment

Previously resolved entries follow.
INSERT INTO assay_data (sequence_entry, quantity_name, reported_value) VALUES
  ('CTTIHYNFMCN [TP53_Y234_Y236F]', 'SH2 binding enrichment', 1.84),
  ('RSDEDYLCREE [POR_Y573_Y575C]', 'SH2 binding enrichment', 0.595),
  ('QQLQGYIPSNF [FRK_Y99_YF]', 'SH2 binding enrichment', 0.47),
  ('AGDGRYEVLFL [SEMA3F_Y478_A474G]', 'SH2 binding enrichment', 7.93),
  ('LISVSYDDWDF [GRIN2A_Y281_YF]', 'SH2 binding enrichment', 1.36),
  ('QAINEYEKWLE [MAP9_Y603]', 'SH2 binding enrichment', 0.655);

A. YNNYGYGSDGF [HNRNPH3_Y161_N163S]
B. NALVQYQEMEK [BBS4_Y395_A393V]
C. LFEDHYLLGTS [ASS1_Y87_R86H_YF]
D. LNEVGYDDIGG [VCP_Y203]
Qu. Order the records, beginning with the lowest SH2 binding enrichment and ending with the highest. Write the labels, ordered according to the request.
Ans. C, A, B, D
(C: 0.534, A: 0.969, B: 4.65, D: 12.2)

* * *

Study System: Jak2 (UniProt O60674)
Sequence (O60674 whole entry, looked up): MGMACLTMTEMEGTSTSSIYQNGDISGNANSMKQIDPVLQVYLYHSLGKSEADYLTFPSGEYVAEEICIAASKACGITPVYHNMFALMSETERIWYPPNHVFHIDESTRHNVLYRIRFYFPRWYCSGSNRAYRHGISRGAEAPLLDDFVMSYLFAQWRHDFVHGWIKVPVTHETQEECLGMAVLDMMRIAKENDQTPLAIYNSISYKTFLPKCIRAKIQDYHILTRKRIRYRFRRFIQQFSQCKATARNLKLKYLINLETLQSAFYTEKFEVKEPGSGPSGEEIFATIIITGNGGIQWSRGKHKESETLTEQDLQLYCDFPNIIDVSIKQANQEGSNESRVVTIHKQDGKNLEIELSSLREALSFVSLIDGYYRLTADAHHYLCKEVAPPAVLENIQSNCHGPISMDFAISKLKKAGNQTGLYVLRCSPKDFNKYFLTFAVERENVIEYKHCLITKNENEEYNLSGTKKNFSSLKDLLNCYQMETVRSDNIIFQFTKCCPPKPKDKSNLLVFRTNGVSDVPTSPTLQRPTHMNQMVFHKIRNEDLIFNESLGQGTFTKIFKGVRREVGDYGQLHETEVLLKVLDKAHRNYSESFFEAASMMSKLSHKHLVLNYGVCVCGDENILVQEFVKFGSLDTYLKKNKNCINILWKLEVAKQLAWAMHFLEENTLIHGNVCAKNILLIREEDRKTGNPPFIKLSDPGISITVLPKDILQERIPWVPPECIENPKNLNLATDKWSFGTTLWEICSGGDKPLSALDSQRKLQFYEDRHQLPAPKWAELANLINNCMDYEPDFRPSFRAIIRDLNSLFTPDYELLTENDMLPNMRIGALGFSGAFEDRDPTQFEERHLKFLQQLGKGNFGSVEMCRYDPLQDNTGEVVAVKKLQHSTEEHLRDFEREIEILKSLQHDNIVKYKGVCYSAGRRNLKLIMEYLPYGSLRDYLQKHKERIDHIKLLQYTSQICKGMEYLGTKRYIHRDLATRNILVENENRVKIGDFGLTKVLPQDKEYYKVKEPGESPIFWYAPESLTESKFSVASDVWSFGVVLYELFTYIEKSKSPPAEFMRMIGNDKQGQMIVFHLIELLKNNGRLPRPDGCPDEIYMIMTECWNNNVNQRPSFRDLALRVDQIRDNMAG
Protocol Details: phosphorylation enrichment, bacterial display (enrichment ratio); higher = better substrate or ligand; peptides without Tyr show the background
Reported phosphorylation enrichment values follow for various sequences
// no unit, no text: just the number

Previously resolved entries follow.
INSERT INTO results (sequence_entry, reported_value) VALUES
  ('EQRRAYLEGTC [HLA-C_Y183_L180R]', 0.917),
  ('RNGDRYFKGIV [DCX_Y64]', 0.626),
  ('ETDSEYVKLAK [C7orf57_Y70]', 0.69),
  ('GQECKYPPTQD [METAP2_Y137_E136K]', 1.03),
  ('FRASFYRRGDR [LTK_Y677_YF]', 0.583);

Qu. Form field: reported phosphorylation enrichment of RIILLYIFLKN [STXBP1_Y411]
Ans. 0.994

Qu. Form field: reported phosphorylation enrichment of SLNEGYAKDFD [FBP1_Y216_R218K]
Ans. 0.71

Qu. Form field: reported phosphorylation enrichment of QDDTVYMGKVI [DCTN1_Y1244_T1249I]
Ans. 1.57

Qu. Form field: reported phosphorylation enrichment of SLDLSYYPTSS [EMD_Y181]
Ans. 4.37

* * *

Reported phosphorylation enrichment values follow for various sequences
Study System: FGFR1 (UniProt P11362)
Sequence (P11362 whole entry, looked up): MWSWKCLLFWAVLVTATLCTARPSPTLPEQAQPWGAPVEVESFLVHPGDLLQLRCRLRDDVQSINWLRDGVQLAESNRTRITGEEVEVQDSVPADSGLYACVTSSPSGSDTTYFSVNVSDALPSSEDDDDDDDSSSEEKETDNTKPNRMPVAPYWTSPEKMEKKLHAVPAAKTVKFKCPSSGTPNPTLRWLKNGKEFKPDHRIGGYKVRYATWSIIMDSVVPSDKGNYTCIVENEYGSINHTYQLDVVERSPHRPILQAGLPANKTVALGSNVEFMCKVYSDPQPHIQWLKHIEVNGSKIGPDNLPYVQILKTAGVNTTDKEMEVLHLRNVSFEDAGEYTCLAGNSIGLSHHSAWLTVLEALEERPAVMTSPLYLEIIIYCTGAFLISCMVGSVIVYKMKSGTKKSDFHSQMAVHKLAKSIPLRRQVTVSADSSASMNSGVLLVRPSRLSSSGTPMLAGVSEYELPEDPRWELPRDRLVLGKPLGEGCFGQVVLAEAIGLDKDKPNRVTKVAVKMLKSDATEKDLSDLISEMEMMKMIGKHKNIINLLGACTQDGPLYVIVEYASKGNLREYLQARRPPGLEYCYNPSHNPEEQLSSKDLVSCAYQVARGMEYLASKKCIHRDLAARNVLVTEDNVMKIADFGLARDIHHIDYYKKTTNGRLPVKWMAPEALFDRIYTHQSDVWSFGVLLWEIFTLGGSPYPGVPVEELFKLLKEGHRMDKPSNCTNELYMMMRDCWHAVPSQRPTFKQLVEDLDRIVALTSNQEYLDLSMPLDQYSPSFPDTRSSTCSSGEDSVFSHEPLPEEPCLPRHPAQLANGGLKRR
Protocol Details: phosphorylation enrichment, bacterial display (enrichment ratio); higher = better substrate or ligand; peptides without Tyr show the background
// no unit, no text: just the number

Previously resolved entries follow.
INSERT INTO measurements (sequence_entry, reported_value) VALUES
  ('CERLPYDANKW [FLT1_Y815_S818N]', 0.422),
  ('KAIDMYLMGCF [GABRB2_Y308]', 0.504),
  ('KVQVSYKGDTK [HSPA1A_Y107_E110D]', 0.425);

Attention now shifts to the item below.
Qu. What value of phosphorylation enrichment on FGFR1 (UniProt P11362) does GSSKIYFLHAD [TLR5_Y108_P112A] have?
Ans. 0.8

* * *

Study System: Fyn (UniProt P06241)
Sequence (P06241 whole entry, looked up): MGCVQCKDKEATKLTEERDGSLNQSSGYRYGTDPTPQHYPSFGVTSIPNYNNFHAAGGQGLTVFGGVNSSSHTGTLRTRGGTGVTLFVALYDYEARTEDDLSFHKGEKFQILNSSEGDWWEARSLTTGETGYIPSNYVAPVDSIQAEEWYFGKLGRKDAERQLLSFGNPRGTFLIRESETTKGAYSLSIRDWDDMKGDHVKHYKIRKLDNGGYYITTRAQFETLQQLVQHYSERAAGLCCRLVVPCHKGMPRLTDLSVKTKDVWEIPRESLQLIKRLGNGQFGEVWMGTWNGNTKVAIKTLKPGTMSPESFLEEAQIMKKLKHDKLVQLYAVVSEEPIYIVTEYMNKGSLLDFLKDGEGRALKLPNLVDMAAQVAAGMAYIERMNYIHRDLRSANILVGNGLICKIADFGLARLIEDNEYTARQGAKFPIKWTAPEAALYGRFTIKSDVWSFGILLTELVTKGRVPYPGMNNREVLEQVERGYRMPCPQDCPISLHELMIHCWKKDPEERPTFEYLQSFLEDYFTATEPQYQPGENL
Protocol Details: phosphorylation enrichment, bacterial display (enrichment ratio); higher = better substrate or ligand; peptides without Tyr show the background
Quantity Name: phosphorylation enrichment
// no unit, no text: just the number

Previously resolved entries follow.
INSERT INTO assay_data (sequence_entry, reported_value) VALUES
  ('SVSVNYGDLVQ [GRAP_Y101_Q104L]', 0.506),
  ('QDDTVYMGKVI [DCTN1_Y1244_T1249I]', 1.45),
  ('FADIAYNYHHG [PAH_Y166_R169H]', 0.469),
  ('HNLDYYKQTTN [FGFR3_Y648_K650Q]', 0.714),
  ('IYKAAYFGVYD [SLC25A4_Y191_R188K]', 6.16),
  ('FIGRIYLYLTK [GARS1_Y414]', 0.445),
  ('KWHREYNSKFV [RICTOR_Y835_YF]', 0.364),
  ('FAREGYSALPQ [SARS2_Y52_YF]', 0.421),
  ('EWKQKYEESQS [MYH6_Y1462]', 0.49),
  ('DRLASSLDKVR [KRT10_Y160_Y160S]', 0.423);

Qu. Form field: reported phosphorylation enrichment of TVLGEYASPKG [CYP24A1_Y407_L409S]
Ans. 0.498

Qu. Form field: reported phosphorylation enrichment of QADVTYVNTQL [MERTK_Y872_I871T]
Ans. 0.518

Qu. Form field: reported phosphorylation enrichment of SIKNKYVTALF [KCNH2_Y611_D609N_YF]
Ans. 0.402

* * *

Test system: c-Abl (mouse)
Protocol Details: phosphorylation enrichment, bacterial display (enrichment ratio); higher = better substrate or ligand; peptides without Tyr show the background
Reported phosphorylation enrichment values follow for various sequences
// no unit, no text: just the number

Previously resolved entries follow.
INSERT INTO assay_data (sequence_entry, reported_value) VALUES
  ('MLEVPYVDRNS [F10_Y384]', 0.611),
  ('KVPCHYDDPGK [FOXG1_Y246_R244C]', 0.707),
  ('IFRASYFRKGG [ALK_Y1282_YF]', 0.721),
  ('QAINEYEKWLE [MAP9_Y603]', 1.06),
  ('ADARMCGVLPW [PLP1_Y207_Y207C]', 0.746),
  ('PSPMPCASCQM [FOXL2_Y215_Y215C]', 0.799);

Qu. Form field: reported phosphorylation enrichment of PIPIKYKAMKK [MYD88_Y257_L252P]
Ans. 0.642
